test system: SLC-DDY male mice; assay: in vivo; type: in vivo; settings: LD50, up and down method, into tail venae (intravenous), SLC-DDY male mice 25 to 35 g
// assign met if Acute toxicity (LD50) falls strictly below 30 mg/kg, else not met (ties count as not met)

Use the examples below as a reference point.
In: Dear reviewer, please state whether C=C(c1ccc(Cl)c(Cl)c1OCC(O)CNC(C)C)n1ccnc1 (stereo not drawn) has Acute toxicity (LD50) strictly beneath 30 mg/kg.
Out: not met

In: Dear reviewer, please state whether C=C(c1c(Cl)ccc(Cl)c1OCC(O)CNCC(C)C)n1ccnc1 (stereo not drawn) has Acute toxicity (LD50) strictly beneath 30 mg/kg.
Out: met

In: Dear reviewer, please state whether C=C(c1ccccc1OCC(O)CNC(C)C)n1cncn1 (stereo not drawn) has Acute toxicity (LD50) strictly beneath 30 mg/kg.
Out: not met

---
In: Dear reviewer, please state whether C=C(c1c(Cl)ccc(Cl)c1OCC(O)CNC(C)C)n1ccnc1 (stereo not drawn) has Acute toxicity (LD50) strictly beneath 30 mg/kg.
Out: met

In: Dear reviewer, please state whether C=C(c1ccccc1OCC(O)CNC(C)C)n1cnc(C)c1 (stereo not drawn) has Acute toxicity (LD50) strictly beneath 30 mg/kg.
Out: not met

In: Dear reviewer, please state whether C=C(c1ccccc1OCC(O)CNC(C)(C)C)n1cnc2ccccc21 (stereo not drawn) has Acute toxicity (LD50) strictly beneath 30 mg/kg.
Out: met
